- Test system: SN12C renal
- experimentNotes: NCI tumour cell line growth inhibition, 48 h
I'd appreciate it if you could supply TGI values for the items below.

Answered examples (5):
- molecule: "CSc1c(C#N)c(N)n(-c2ccc(C)cc2)c(=O)c1C#N"
  result: "> 100 µM"
- molecule: "CC(C)c1[nH]nc2c1N=C(c1ccccc1Cl)c1cc([N+](=O)[O-])ccc1N2"
  result: "> 25 µM"
- molecule: "C[C@@H]1S[C@H](c2ccccc2F)N2Cc3ccccc3N=C12"
  result: "42.2 µM"
- molecule: "O=C(O)C(SC1=NNC2(C(=O)N1)c1ccccc1-c1ccccc12)SC1=NNC2(C(=O)N1)c1ccccc1-c1ccccc12"
  result: "> 10 µM"
- molecule: "CCN(CC)CCCNC(=O)c1ccc([N+](=O)[O-])cc1O"
  result: "> 100 µM"

Each molecule below has a reported value. Please supply its TGI.
1. CC(C)CC(C/C=C1/CC(CO)(COC(=O)C(C)(C)C)OC1=O)CC(C)C (stereo not given)
2. O=C(Cc1ccccc1)NN1C(=O)/C(=C\c2ccccc2)SC1=Nc1ccccc1
3. COc1cc(-c2cc(=O)c3cc4c(=O)cc(-c5cc(OC)c(OC)c(OC)c5)oc4cc3o2)cc(OC)c1OC
4. COc1ccc(-c2oc(/C=N/NC(N)=S)c([N+](=O)[O-])c2-c2ccc(OC)c(OC)c2)cc1OC
5. O=C(Oc1cc(=O)c(OC(=O)c2ccccc2)co1)c1ccccc1
6. COC(=O)c1c2c(cc3c1CCC3)CCC2

### Response
22.2 µM
> 100 µM
> 100 µM
> 100 µM
> 100 µM
> 100 µM

Each molecule below has a reported value. Please supply its TGI.
1. CC12CCC3C(CCC4CC(OC(=O)Cc5ccc(N(CCCl)CCCl)cc5)CCC43C)C1CCC(=O)N2 (stereo not given)
2. COc1ccc(-c2ccc3c(N4CCOC[C@@H]4C)nc(N4CCOC[C@@H]4C)nc3n2)cc1CO
3. COc1ccc(-c2c3c([nH]c(=S)c2C#N)CC(C)(C)CC3=O)cc1
4. ClCCN(CCCl)c1ccc(CNc2ccccc2)cc1
5. N#CCCN1C/C(=C/c2ccc(Br)cc2)C(=O)/C(=C/c2ccc(Br)cc2)C1
6. N[C@H](CCC(=O)N[C@@H](Cc1c[nH]c2ccccc12)C(=O)O)C(=O)O
7. CC(C(=O)c1ccc(Cl)cc1)/C(=N/NC(=O)NN)C(=O)Nc1cccc(C(F)(F)F)c1 (stereo not given)
8. COc1ccc(-c2nccn2-c2ccc(OC)cc2)cc1

### Response
["29.6 µM", "> 100 µM", "> 100 µM", "> 100 µM", "4.6 µM", "> 100 µM", "> 100 µM", "50.3 µM"]

### Prompt Form: Entry = `O=C(Nc1cc(Nc2ncccc2-c2ncnc3nc[nH]c23)ccc1F)c1cc(C(F)(F)F)cc(C(F)(F)F)c1` | System = SN12C renal | TGI = ____
### Response > 10 µM

* * *

- System: A549 NSCLC
- experimentNotes: NCI tumour cell line growth inhibition, 48 h
I'd appreciate it if you could supply TGI values for the items below.

Answered examples (3):
- compound: "C=C1c2cc3c(cc2CC12Cc1cc4c(cc1C2=O)CCC4)CCC3 (centres undefined)"
  tgt: "A549 NSCLC"
  TGI: "> 100 µM"
- compound: "CC1=C(C#N)C(=O)CC(c2ccc(Cl)cc2)N(C)N1 (centres undefined)"
  tgt: "A549 NSCLC"
  TGI: "> 100 µM"
- compound: "NC(=O)C(=O)CC(=O)c1ccccc1NC1=CC(=O)C(=O)c2ccccc21"
  tgt: "A549 NSCLC"
  TGI: "> 100 µM"

Each compound below has a reported value. Please supply its TGI.
1. O=C(c1ccco1)c1c(C(F)(F)F)n([O-])c2ccc(C(F)(F)F)cc2[n+]1=O
2. C[C@]12CC[C@@H]3c4ccc(O)cc4CC[C@H]3[C@@H]1C/C(=C\c1ccncc1)[C@@H]2O
3. Cc1cn([C@@H]2C[C@H](CO)[C@@H](O)C2)c(=O)[nH]c1=O
4. O=C(Oc1cc(=O)c(OC(=O)c2ccccc2)co1)c1ccccc1
5. CC(C)(C)OC(=O)NCCC(N)=S

### Response
0.7 µM
> 100 µM
> 100 µM
> 100 µM
> 100 µM

### Prompt Form: Entry = `CC1(C)CN=C(NN=C(/C=C/c2ccc(C(F)(F)F)cc2)/C=C/c2ccc(C(F)(F)F)cc2)NC1` | System = A549 NSCLC | TGI = ____
### Response 2.91 µM
